# Test system: KB
# experimental.details: Cytotoxicity against human vincristine-sensitive KB cells assessed as cell viability after 72 hrs by MTT assay
# Format: functional, cell-based
assay.readout: IC50

Example cases with answers are listed next.
{"compound": "COC(=O)N1c2c(ccc3c2OCO3)[C@@]23C4CN5CCC[C@]6(CC[C@]12[C@](O)(C6)OC4=O)[C@H]53 (some centres not stated)", "test.target": "KB", "IC50": "> 25 µg/mL"}
{"compound": "O=C1OC2C(=O)N3CCC[C@]45CC[C@@]6(Nc7ccccc7[C@@]26[C@@H]34)[C@@H]1C5 (some centres not stated)", "test.target": "KB", "IC50": "> 25 µg/mL"}
{"compound": "COC(=O)[C@@H]1C[C@]23CC[C@@]14Nc1ccccc1[C@@]41CCN(C4=CC(=O)C[C@H]4C2)[C@@H]31", "test.target": "KB", "IC50": "> 25 µg/mL"}

For every item below, please supply its IC50.
1. CC[C@@]12CCCN3CCc4c(n(c5ccccc45)[C@H](c4ccc5c(c4)N[C@@]46CC[C@]7(CCCN8CC[C@]54[C@@H]87)C[C@H]6C(=O)OC)C1)[C@H]32
2. CC[C@]1(O)C[C@H]2CN(CCc3c([nH]c4ccccc34)[C@@](C(=O)OC)(c3cc4c(cc3OC)N(C=O)[C@H]3[C@@](O)(C(=O)OC)[C@H](OC(C)=O)[C@]5(CC)C=CCN6CC[C@]43[C@@H]65)C2)C1 [VINCRISTINE]
3. COC(=O)[C@@H]1C[C@]23CC[C@@]14Nc1ccccc1[C@@]41CCN(C(=O)C2)[C@@H]31
4. COc1ccc(CCN(C)CCCC(C#N)(c2ccc(OC)c(OC)c2)C(C)C)cc1OC (configuration not stated)

1. 24.2 µM
2. 0.0033 µM
3. > 25 µg/mL
4. > 25 µg/mL
